# Test system: THP-1 cells
# RUN DESCRIPTION: Toxicity on host THP-1 macrophages, MTT
# Format: cell-based
# SETTINGS: Homo sapiens, THP-1; MTT, 72 h; read-out: THP-1 IC50
IC50: recorded values
PARAMETER MEASURED: IC50

CC(=O)O[C@@]1(CO)CC[C@H](C(C)C)[C@H]2C=C(C(=O)O)COC(=O)[C@@H]21; > 200 µM
CC(=O)OCCCCC/C=C(/C(=O)O)[C@H](C)C(=O)O [Compound 2, (+)-6′-acetoxy-piliformic acid]; > 200 µM
CC(C)[C@H]1CC[C@H]2COC(=O)[C@H]2[C@@H]1/C=C(\CO)C(=O)O; > 200 µM
CC(C)C1CCC2(O)COC(=O)C2C1C=C(CO)C(=O)O (stereo not shown) [Compound 5, hydroheptelidic acid]; > 200 µM
C[C@@H]1[C@H](O)[C@@H](C)/C=C/C=C/C=C/C=C/C=C/C=C/C=C/[C@H](O[C@@H]2O[C@H](C)[C@@H](O)[C@H](N)[C@@H]2O)C[C@@H]2O[C@](O)(C[C@@H](O)C[C@@H](O)[C@H](O)CC[C@@H](O)C[C@@H](O)CC(=O)O[C@H]1C)C[C@H](O)[C@H]2C(=O)O [Amphotericin B, reference compound]; 12 µM
C=CCCC/C=C(/C(=O)O)[C@H](C)C(=O)O; > 200 µM
CCCCC/C=C(/C(=O)O)[C@H](C)C(=O)O [Compound 4, (+)-piliformic acid]; > 200 µM
